# system.under.test: Rabbit skeletal myosin
# test.summary: Skeletal muscle myosin II actin-activated ATPase assay
# run.parameters: 20 nM skeletal muscle myosin II; read-out: SKMMII KI
value.type: pKi
Here pKi is given on a logarithmic scale as minus log10 of the concentration in mol/L.

compound: Cc1ccc2cc(N3CC[C@@]4(O)C(=O)c5sc(C)cc5N=C34)ccc2n1 [BPN-0028863]
pKi: 5.55
--
compound: CNc1cc(N2CC[C@@]3(O)C(=O)c4cc(C)c(C)cc4N=C23)ccn1 [BPN-0028650]
pKi: 4.92
--
compound: Cc1cc2c(cc1C)C(=O)[C@]1(O)CCN(c3ccn4nccc4c3)C1=N2 [BPN-0027488]
pKi: 6.05
--
compound: Cc1cc2c(cc1F)C(=O)[C@]1(O)CCN(c3ccc(C#N)cc3)C1=N2 [BPN-0026638]
pKi: 6.43

Moving on to the next compound.
### Prompt Value lookup for pKi; key = CCc1cc2c(s1)N=C1N(c3ccc(OC)cc3)CC[C@@]1(O)C2=O [BPN-0026881]
### Response 6.10

* * *

# system.under.test: nonmuscle myosin II (Chlorocebus sabaeus)
# Sequence (A0A0D9RDH4 1-1976): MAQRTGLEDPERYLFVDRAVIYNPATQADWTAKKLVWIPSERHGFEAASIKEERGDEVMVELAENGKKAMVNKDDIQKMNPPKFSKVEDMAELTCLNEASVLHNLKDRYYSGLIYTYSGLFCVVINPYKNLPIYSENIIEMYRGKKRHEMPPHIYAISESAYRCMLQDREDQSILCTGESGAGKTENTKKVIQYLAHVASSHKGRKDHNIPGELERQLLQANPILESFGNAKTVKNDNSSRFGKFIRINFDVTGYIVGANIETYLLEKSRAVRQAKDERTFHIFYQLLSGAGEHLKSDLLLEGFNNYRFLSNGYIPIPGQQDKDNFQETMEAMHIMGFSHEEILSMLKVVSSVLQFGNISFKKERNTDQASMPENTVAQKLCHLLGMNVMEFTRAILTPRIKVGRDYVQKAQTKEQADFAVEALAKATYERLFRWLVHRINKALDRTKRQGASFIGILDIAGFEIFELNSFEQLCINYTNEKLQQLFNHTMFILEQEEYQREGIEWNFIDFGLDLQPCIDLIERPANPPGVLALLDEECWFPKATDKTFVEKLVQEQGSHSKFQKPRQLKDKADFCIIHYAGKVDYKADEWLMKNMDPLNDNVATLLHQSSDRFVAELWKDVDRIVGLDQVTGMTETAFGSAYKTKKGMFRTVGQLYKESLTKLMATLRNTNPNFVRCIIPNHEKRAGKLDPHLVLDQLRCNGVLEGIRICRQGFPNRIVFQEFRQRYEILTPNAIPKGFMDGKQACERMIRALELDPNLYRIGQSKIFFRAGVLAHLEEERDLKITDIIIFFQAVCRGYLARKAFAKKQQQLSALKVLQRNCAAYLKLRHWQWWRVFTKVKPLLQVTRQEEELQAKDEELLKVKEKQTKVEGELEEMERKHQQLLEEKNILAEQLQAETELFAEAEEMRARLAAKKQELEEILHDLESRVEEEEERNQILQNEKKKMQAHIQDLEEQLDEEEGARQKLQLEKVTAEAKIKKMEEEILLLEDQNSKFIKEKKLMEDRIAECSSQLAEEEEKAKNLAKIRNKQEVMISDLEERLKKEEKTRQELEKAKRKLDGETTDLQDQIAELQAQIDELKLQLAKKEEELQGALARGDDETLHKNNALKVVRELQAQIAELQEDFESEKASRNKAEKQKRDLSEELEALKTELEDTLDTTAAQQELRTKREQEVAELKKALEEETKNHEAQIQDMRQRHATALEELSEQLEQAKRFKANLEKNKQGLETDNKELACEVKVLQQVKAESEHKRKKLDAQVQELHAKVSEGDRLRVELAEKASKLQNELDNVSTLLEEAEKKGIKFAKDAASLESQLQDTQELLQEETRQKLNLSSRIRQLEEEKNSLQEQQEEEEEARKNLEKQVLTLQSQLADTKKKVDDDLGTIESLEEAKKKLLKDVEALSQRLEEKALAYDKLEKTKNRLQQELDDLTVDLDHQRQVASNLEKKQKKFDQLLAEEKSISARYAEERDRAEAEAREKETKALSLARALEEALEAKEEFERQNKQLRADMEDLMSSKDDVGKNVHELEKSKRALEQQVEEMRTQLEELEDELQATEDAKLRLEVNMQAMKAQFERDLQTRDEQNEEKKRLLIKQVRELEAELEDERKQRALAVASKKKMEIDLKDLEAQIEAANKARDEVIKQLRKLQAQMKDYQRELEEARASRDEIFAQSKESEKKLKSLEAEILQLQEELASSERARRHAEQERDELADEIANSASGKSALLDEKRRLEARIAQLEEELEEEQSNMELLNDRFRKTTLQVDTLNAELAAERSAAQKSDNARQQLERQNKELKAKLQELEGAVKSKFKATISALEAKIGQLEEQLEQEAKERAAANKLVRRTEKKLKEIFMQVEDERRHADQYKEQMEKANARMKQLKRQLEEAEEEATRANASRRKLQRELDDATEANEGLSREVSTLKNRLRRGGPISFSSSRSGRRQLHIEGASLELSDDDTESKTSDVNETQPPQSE
# test.summary: Cytokinesis cell-based assay of nonmuscle myosin II function in COS7 cells
# run.parameters: read-out: NMII EC50
value.type: EC50 (nM)
Answer format: numeric, nM implied, no suffix.

### Prompt Recorded EC50 for O=C1c2cc(Cl)ccc2N=C2N(c3ccccc3)CC[C@@]12O with nonmuscle myosin II (Chlorocebus sabaeus), please?
### Response 2600

* * *

# system.under.test: Rabbit skeletal myosin
# test.summary: Skeletal muscle myosin II actin-activated ATPase assay
# run.parameters: 20 nM skeletal muscle myosin II; read-out: SKMMII KI
I'd appreciate it if you marked entries met when Ki is lower than 6 µM and not met when it is not.

### Prompt Hello, is Ki of the following molecule strictly smaller than 6 µM? O=C1c2cc(C(F)(F)F)ccc2N=C2N(c3ccc4ccoc4c3)CC[C@@]12O
### Response not met

### Prompt Hello, is Ki of the following molecule strictly smaller than 6 µM? Cc1ccc2c(c1)C(=O)[C@]1(O)CCN(c3ccc4nc(CO)ccc4c3)C1=N2
### Response not met

### Prompt Hello, is Ki of the following molecule strictly smaller than 6 µM? Cc1cc2c(cc1C)C(=O)[C@]1(O)CCN(c3cccs3)C1=N2
### Response met

### Prompt Hello, is Ki of the following molecule strictly smaller than 6 µM? Cc1ccc2c(c1)C(=O)[C@]1(O)CCN(c3ccc4nc(N)ccc4c3)C1=N2
### Response met

### Prompt Hello, is Ki of the following molecule strictly smaller than 6 µM? Cc1cc2c(cc1C)C(=O)[C@]1(O)CCN(c3ccc4nc(C#N)ccc4c3)C1=N2
### Response met

### Prompt Hello, is Ki of the following molecule strictly smaller than 6 µM? Cc1nc2ccc(N3CC[C@@]4(O)C(=O)c5cc(C)c(C)cc5N=C34)cc2o1
### Response met

### Prompt Hello, is Ki of the following molecule strictly smaller than 6 µM? Cc1ccc2c(c1)C(=O)[C@]1(O)CCN(c3ccc(C)c(C)c3)C1=N2
### Response not met

* * *

# test.summary: Photostability, percentage remaining undegraded under illumination or in the dark
# run.parameters: percentage remaining undegraded after 4 hours illumination
Reported Photostability 4 hours values are given for each entry in this list.
Answer format: numeric, % implied, no suffix.

input.smiles: Cc1sc2c(c1C)C(=O)[C@]1(O)CCN(c3ccc(Cl)cc3)C1=N2
unit.tag: %
obs.value: 91.2
//
input.smiles: Cc1cc2c(s1)C(=O)[C@]1(O)CCN(c3cccc(Br)c3)C1=N2
unit.tag: %
obs.value: 95.8
//
input.smiles: Cc1ccc2c(c1)C(=O)[C@]1(O)CCN(c3ccc4c(c3)OCCN4)C1=N2
unit.tag: %
obs.value: 90.8

### Prompt Value lookup for Photostability 4 hours; key = Cc1cc2c(cc1C)C(=O)[C@]1(O)CCN(c3cnc4c(c3)OCCN4)C1=N2
### Response 89.8

### Prompt Value lookup for Photostability 4 hours; key = O=C1c2cc(Cl)ccc2N=C2N(c3ccc(Cl)cc3)CC[C@@]12O
### Response 71.1

### Prompt Value lookup for Photostability 4 hours; key = Cc1cc2c(cc1C)C(=O)[C@]1(O)CCN(c3cnc4sccc4c3)C1=N2
### Response 76.1

### Prompt Value lookup for Photostability 4 hours; key = Cc1ccc(N2CC[C@@]3(O)C(=O)c4cc(C)c(C)cc4N=C23)cc1
### Response 40.7
